Test system: Bacillus subtilis DB104 (SP-AmyQ fusion secretion)
assay method text: AmyQ secretion efficiency, weighted average sort bin (1 = best secretion, 10 = worst) (bin number (weighted average, 1-10)); higher = lower secretion efficiency
readout label: AmyQ secretion efficiency
Please reply with the value in numeric form only.

For orientation, consider the following solved cases.
polymer sequence: MGLGKKLSVAVAASFMSLSISLPGVQEAEG
test system: Bacillus subtilis DB104 (SP-AmyQ fusion secretion)
AmyQ secretion efficiency: 6.02
--
polymer sequence: MKRFLIGAGVAAVILSGWTIADHQTHSQEM
test system: Bacillus subtilis DB104 (SP-AmyQ fusion secretion)
AmyQ secretion efficiency: 5.66
--
polymer sequence: MKQFAITLSVLCALILLVPTLLVIPFQHNKMAGASV
test system: Bacillus subtilis DB104 (SP-AmyQ fusion secretion)
AmyQ secretion efficiency: 5.07

Next item in the queue.
Memo: `MSTTIIITATTAVVLGSTLFAGAASAQSI` , reported AmyQ secretion efficiency: 2.61

From: the supplement of paper PMC9942255
